tested on: SEM cells; assay: cell viability relative to DMSO control; higher = less cytotoxic; conditions: HPLM + 10% dialyzed FBS; 48 h; 0.569 µM

{"compound": "CC1(C)CC(O)CC(C)(C)N1[O]", "units": "%", "cell viability": 44.7}
{"compound": "NC\\1=N\\C(=O)N(\\C=C1)[C@H]\\2[C@H](O)[C@H](O)C(=C2F)\\CO", "units": "%", "cell viability": 108}
{"compound": "COc1ccnc(C[S+]([O-])c2nc3cc(OC(F)F)ccc3[nH]2)c1OC (stereo not given)", "units": "%", "cell viability": 133}
{"compound": "COc1cc(OC)c(NC(=O)Nc2cc(C)on2)cc1Cl", "units": "%", "cell viability": 97.3}
{"compound": "CN[C@@H]1C[C@H]2O[C@@](C)([C@@H]1OC)n1c3ccccc3c3c4c(c5c6ccccc6n2c5c31)C(=O)N[C@H]4O", "units": "%", "cell viability": 36.7}

----------
tested on: NOMO1; assay: cell viability relative to DMSO control; higher = less cytotoxic; conditions: RPMI 5 mM glucose + 10% dialyzed FBS; 48 h; 0.0211 µM
Item-by-item account of cell viability
measure name: cell viability

{"molecule": "NC(=O)c1cccc(N)c1", "measure name": "cell viability", "value observed": "116%"}
{"molecule": "O=C(CCCCCCC(=O)Nc1ccccc1)NO", "measure name": "cell viability", "value observed": "114%"}
{"molecule": "CCCCCCCCCCCCCCCCCCOP(=O)([O-])OC1CC[N+](C)(C)CC1", "measure name": "cell viability", "value observed": "103%"}
{"molecule": "OC(COC1=C2C(=O)\\C=C(/OC2=CC=C1)C([O-])=O)COC3=C4C(=O)\\C=C(/OC4=CC=C3)C([O-])=O", "measure name": "cell viability", "value observed": "76.4%"}
{"molecule": "O=[N+]([O-])c1cnc(Sc2nnc(O)n2-c2ccc3c(c2)OCCO3)s1", "measure name": "cell viability", "value observed": "97.1%"}
{"molecule": "Cc1ncc([N+](=O)[O-])n1CCO", "measure name": "cell viability", "value observed": "131%"}
{"molecule": "COc1cccc2c1C(=O)c1c(O)c3c(c(O)c1C2=O)C[C@@](O)(C(C)=O)C[C@@H]3O[C@H]1C[C@H](N)[C@H](O)[C@H](C)O1", "measure name": "cell viability", "value observed": "115%"}
{"molecule": "Cc1ccc(-c2ncn(-c3ccc(Nc4nccc(-c5cccc(N6CCOCC6)c5)n4)cc3)n2)cn1", "measure name": "cell viability", "value observed": "97.8%"}
{"molecule": "CN(C)C[C@@H]1CC[N]2C=C(C3=C2C=CC=C3)C/4=C(/C(=O)NC4=O)C5=C[N](CCO1)C6=C5C=CC=C6", "measure name": "cell viability", "value observed": "93.4%"}
{"molecule": "C[C@@H]1CC[C@@]2(OC1)OC1CC3C4CC=C5CC(O)CCC5(C)C4CCC3(C)C1[C@@H]2C (some centres not stated)", "measure name": "cell viability", "value observed": "87.6%"}
{"molecule": "COC[C@H]1OC(=O)C2=COC3=C2[C@@]1(C)\\C4=C(\\[C@@H]5CC[C@H](O)[C@@]5(C)C[C@H]4OC(C)=O)C3=O", "measure name": "cell viability", "value observed": "106%"}
{"molecule": "Oc1cc(O)cc(/C=C/c2ccc(O)c(O)c2)c1", "measure name": "cell viability", "value observed": "88.8%"}
{"molecule": "CC(C)(C)c1cc(C(=O)O)c(NC(=O)Nc2ccc3[nH]ncc3c2)s1", "measure name": "cell viability", "value observed": "89.5%"}
{"molecule": "COc1cc(-c2nn(C3CCC(N4CCN(C(C)=O)CC4)CC3)c3ncnc(N)c23)ccc1NC(=O)c1cc2ccccc2n1C (configuration not stated)", "measure name": "cell viability", "value observed": "119%"}
{"molecule": "CN(C)c1ccc2cc(C(=O)N[C@@H](CCCNC(=N)CCl)C(=O)NCc3ccccc3)ccc2c1", "measure name": "cell viability", "value observed": "110%"}
{"molecule": "COC1=CC=C(C=C1)C2CC(=N/N2C3=CC=C(C=C3)[S+](N)([O-])=O)\\C4=CC=CC=C4 (configuration not stated)", "measure name": "cell viability", "value observed": "103%"}
{"molecule": "Cc1cc(O)c2c(c1)C(=O)c1cc(O)cc(O)c1C2=O", "measure name": "cell viability", "value observed": "96.9%"}
{"molecule": "CCCCCCCCc1ccc(CCC(N)(CO)CO)cc1", "measure name": "cell viability", "value observed": "113%"}
{"molecule": "Nc1nc(OCc2ccccc2)c2nc[nH]c2n1", "measure name": "cell viability", "value observed": "118%"}
{"molecule": "O=C1NC(O)CCN1[C@@H]1O[C@H](CO)[C@@H](O)[C@H]1O (some centres not stated)", "measure name": "cell viability", "value observed": "108%"}
{"molecule": "COc1cc([C@@H]2c3cc4c(cc3[C@@H](O[C@@H]3O[C@@H]5CO[C@@H](c6cccs6)O[C@H]5[C@H](O)[C@H]3O)[C@H]3COC(=O)[C@H]23)OCO4)cc(OC)c1O", "measure name": "cell viability", "value observed": "89.6%"}
{"molecule": "C[C@@H]1C[C@H]2[C@@H]3CC\\C4=C\\C(=O)\\C=C/[C@]4(C)[C@@]3(Cl)[C@@H](O)C[C@]2(C)[C@@]1(OC(=O)C5=CC=CO5)C(=O)CCl", "measure name": "cell viability", "value observed": "113%"}

----------
tested on: P12-Ichikawa; assay: AUC of viability dose-response curve (% viability x log10 dose units); higher = less sensitive; details: RPMI 5 mM glucose + 10% dialyzed FBS; 48 h
Rule: AUC of viability dose-response curve below 400 gives Criterion met. Equal to or above 400 gives Criterion not met.

{"molecule": "O=C(CCCCCCC(=O)Nc1ccccc1)NO", "category label": "Criterion met"}
{"molecule": "C[S+]([O-])c1ccc(-c2nc(-c3ccc(F)cc3)c(-c3ccncc3)[nH]2)cc1 (stereo not given)", "category label": "Criterion met"}
{"molecule": "CCN1C[C@]2(OC(=O)c3ccccc3NC(C)=O)CC[C@H](OC)[C@@]34[C@@H]2C[C@@H]([C@@H]13)[C@@]1(O)C[C@H](OC)[C@H]2C[C@@H]4[C@]1(O)[C@H]2OC", "category label": "Criterion not met"}
{"molecule": "NC(=O)c1cccc(N)c1", "category label": "Criterion not met"}
{"molecule": "COc1ccnc(C[S+]([O-])c2nc3cc(OC(F)F)ccc3[nH]2)c1OC (stereo not given)", "category label": "Criterion not met"}
{"molecule": "Cc1ccc(C(=O)c2cc(O)c(O)c([N+](=O)[O-])c2)cc1", "category label": "Criterion not met"}
{"molecule": "NC(=O)Nc1cc(-c2ccc(CN3CCOCC3)cc2)sc1C(N)=O", "category label": "Criterion met"}
{"molecule": "COc1ccc2c(c1OC)CN1CCc3cc4c(cc3C1C2)OCO4 (stereo not given)", "category label": "Criterion met"}

----------
test system: NOMO1; assay: cell viability relative to DMSO control; higher = less cytotoxic; settings: RPMI 5 mM glucose + 10% dialyzed FBS; 48 h; 0.00234 µM
Item-by-item account of cell viability
measure name: cell viability (%)

{"compound": "CC(C)(C)NC(=O)[C@H]1CC[C@H]2[C@@H]3CC[C@H]4NC(=O)\\C=C/[C@]4(C)[C@H]3CC[C@]12C", "measure name": "cell viability", "value observed": 105}
{"compound": "C[N+](C)([O-])CCNc1ccc(NCC[N+](C)(C)[O-])c2c1C(=O)c1c(O)ccc(O)c1C2=O", "measure name": "cell viability", "value observed": 93.6}
{"compound": "CCCCCCCCCCCCCCCCCCOP(=O)([O-])OC1CC[N+](C)(C)CC1", "measure name": "cell viability", "value observed": 107}
{"compound": "C[S+]([O-])c1ccc(-c2nc(-c3ccc(F)cc3)c(-c3ccncc3)[nH]2)cc1 (stereo not drawn)", "measure name": "cell viability", "value observed": 86.2}
{"compound": "C#C[C@]1(O)CC[C@H]2[C@@H]3CCc4cc(OC)ccc4[C@H]3CC[C@@]21C", "measure name": "cell viability", "value observed": 107}
{"compound": "NC\\1=N\\C(=O)N(\\C=C1)[C@H]\\2[C@H](O)[C@H](O)C(=C2F)\\CO", "measure name": "cell viability", "value observed": 96.9}
{"compound": "COC1=CC=C(C=C1)C2CC(=N/N2C3=CC=C(C=C3)[S+](N)([O-])=O)\\C4=CC=CC=C4 (stereo not drawn)", "measure name": "cell viability", "value observed": 93.8}
{"compound": "COc1cccc2c1C(=O)c1c(O)c3c(c(O)c1C2=O)C[C@@](O)(C(C)=O)C[C@@H]3O[C@H]1C[C@H](N)[C@H](O)[C@H](C)O1", "measure name": "cell viability", "value observed": 113}
